test: Antiproliferative activity against human 786-O cells incubated for 72 hrs by MTT assay; type: functional, cell-based; conditions: 786-0, 72 h
parameter: pIC50
pIC50 is defined as minus the log10 of a concentration measured in mol/L.

Here is how some molecules turned out for pIC50.
COc1ccc2c(c1)C(=O)c1c-2c(N2CCN(C(=O)CN3CCNCC3)CC2)nc2ccccc12 : 5.40
COc1ccc2c(c1)/C(=N\OCC(O)CN(C)C)c1c-2c(N2CCN(CC(O)CN(C)C)CC2)nc2ccccc12 (stereo not drawn) : 4.86

q: For "COc1ccc2c(c1)C(=O)c1c-2c(N2CCN(C(=O)CN(C)C)CC2)nc2ccccc12" , what is its reported pIC50?
a: 4.85
